Catalogue of Min. Death conc. readings, one per entry.
Test system: MCF-7 (human breast adenocarcinoma) cells
EXPERIMENTAL DETAILS: In vitro dark cytotoxicity, MCF-7 cells (anticancer studies)
Format: cell-based
STATED CONDITIONS: MCF-7, dark, 24 h
Numeric answer plus unit only.

COMPOUND	RESULT
C[n+]1c(-c2ccc(Oc3ccc4c(c3)C3=Nc5c6ccc(Oc7ccc(-c8[nH]c9cc(Cl)cc(Cl)c9[n+]8C)cc7)cc6c6[n]5[Co][n]5c(c7ccc(Oc8ccc(-c9[nH]c%10cc(Cl)cc(Cl)c%10[n+]9C)cc8)cc7c5=NC5=NC(=N6)c6cc(Oc7ccc(-c8[nH]c9cc(Cl)cc(Cl)c9[n+]8C)cc7)ccc65)=NC4=N3)cc2)[nH]c2cc(Cl)cc(Cl)c21.[I-].[I-].[I-].[I-] [Compound 200]	40 µM
C[n+]1c(-c2ccc(Oc3ccc4c(c3)C3=Nc5c6ccc(Oc7ccc(-c8[nH]c9cc(Cl)c(Cl)cc9[n+]8C)cc7)cc6c6[n]5[Co][n]5c(c7ccc(Oc8ccc(-c9[nH]c%10cc(Cl)c(Cl)cc%10[n+]9C)cc8)cc7c5=NC5=NC(=N6)c6cc(Oc7ccc(-c8[nH]c9cc(Cl)c(Cl)cc9[n+]8C)cc7)ccc65)=NC4=N3)cc2)[nH]c2cc(Cl)c(Cl)cc21.[I-].[I-].[I-].[I-] [Compound 208]	20 µM
C[n+]1c(-c2ccc(Oc3ccc4c(c3)C3=Nc5c6ccc(Oc7ccc(-c8[nH]c9cc(F)cc(Br)c9[n+]8C)cc7)cc6c6[n]5[Cu][n]5c(c7ccc(Oc8ccc(-c9[nH]c%10cc(F)cc(Br)c%10[n+]9C)cc8)cc7c5=NC5=NC(=N6)c6cc(Oc7ccc(-c8[nH]c9cc(F)cc(Br)c9[n+]8C)cc7)ccc65)=NC4=N3)cc2)[nH]c2cc(F)cc(Br)c21.[I-].[I-].[I-].[I-] [Compound 231]	5 µM

From here, focus on the item given below.
Qu. Record request: Min. Death conc. value, item C[n+]1c(-c2ccc(Oc3ccc4c(c3)C3=Nc5c6ccc(Oc7ccc(-c8[nH]c9cc(Cl)cc(Cl)c9[n+]8C)cc7)cc6c6[n]5[Zn][n]5c(c7ccc(Oc8ccc(-c9[nH]c%10cc(Cl)cc(Cl)c%10[n+]9C)cc8)cc7c5=NC5=NC(=N6)c6cc(Oc7ccc(-c8[nH]c9cc(Cl)cc(Cl)c9[n+]8C)cc7)ccc65)=NC4=N3)cc2)[nH]c2cc(Cl)cc(Cl)c21.[I-].[I-].[I-].[I-] [Compound 193]
Ans. 40 µM

* * *

Test system: MCF-7 (human breast adenocarcinoma) cells
EXPERIMENTAL DETAILS: In vitro dark cytotoxicity, MCF-7 cells (anticancer studies)
Format: cell-based
STATED CONDITIONS: MCF-7, dark, 24 h
READOUT NAME: Min. Death conc. (µM)
Note: unit µM is implicit; provide only the numeric part.

Example entries begin here.
MOLECULE	TEST SYSTEM	Min. Death conc. (µM)
C[n+]1c(-c2ccc(Oc3ccc4c(c3)C3=Nc5c6ccc(Oc7ccc(-c8[nH]c9cc(Cl)cc(Cl)c9[n+]8C)cc7)cc6c6[n]5[Cu][n]5c(c7ccc(Oc8ccc(-c9[nH]c%10cc(Cl)cc(Cl)c%10[n+]9C)cc8)cc7c5=NC5=NC(=N6)c6cc(Oc7ccc(-c8[nH]c9cc(Cl)cc(Cl)c9[n+]8C)cc7)ccc65)=NC4=N3)cc2)[nH]c2cc(Cl)cc(Cl)c21.[I-].[I-].[I-].[I-] [Compound 201]	MCF-7 (human breast adenocarcinoma) cells	120
C[n+]1c(-c2ccc(Oc3ccc4c(c3)C3=Nc5c6ccc(Oc7ccc(-c8[nH]c9cc(Br)cc(Cl)c9[n+]8C)cc7)cc6c6[n]5[Zn][n]5c(c7ccc(Oc8ccc(-c9[nH]c%10cc(Br)cc(Cl)c%10[n+]9C)cc8)cc7c5=NC5=NC(=N6)c6cc(Oc7ccc(-c8[nH]c9cc(Br)cc(Cl)c9[n+]8C)cc7)ccc65)=NC4=N3)cc2)[nH]c2cc(Br)cc(Cl)c21.[I-].[I-].[I-].[I-] [Compound 233]	MCF-7 (human breast adenocarcinoma) cells	60
C[n+]1c(-c2ccc(Oc3ccc4c(c3)C3=Nc5c6ccc(Oc7ccc(-c8[nH]c9cc(F)cc(Br)c9[n+]8C)cc7)cc6c6[n]5[Co][n]5c(c7ccc(Oc8ccc(-c9[nH]c%10cc(F)cc(Br)c%10[n+]9C)cc8)cc7c5=NC5=NC(=N6)c6cc(Oc7ccc(-c8[nH]c9cc(F)cc(Br)c9[n+]8C)cc7)ccc65)=NC4=N3)cc2)[nH]c2cc(F)cc(Br)c21.[I-].[I-].[I-].[I-] [Compound 230]	MCF-7 (human breast adenocarcinoma) cells	5
C[n+]1c(-c2ccc(Oc3ccc4c(c3)C3=Nc5c6ccc(Oc7ccc(-c8[nH]c9cc(Br)cc(Cl)c9[n+]8C)cc7)cc6c6[n]5[Co][n]5c(c7ccc(Oc8ccc(-c9[nH]c%10cc(Br)cc(Cl)c%10[n+]9C)cc8)cc7c5=NC5=NC(=N6)c6cc(Oc7ccc(-c8[nH]c9cc(Br)cc(Cl)c9[n+]8C)cc7)ccc65)=NC4=N3)cc2)[nH]c2cc(Br)cc(Cl)c21.[I-].[I-].[I-].[I-] [Compound 234]	MCF-7 (human breast adenocarcinoma) cells	60
C[n+]1c(-c2ccc(Oc3ccc4c(c3)C3=Nc5c6ccc(Oc7ccc(-c8[nH]c9cc(Br)cc(Cl)c9[n+]8C)cc7)cc6c6[n]5[Cu][n]5c(c7ccc(Oc8ccc(-c9[nH]c%10cc(Br)cc(Cl)c%10[n+]9C)cc8)cc7c5=NC5=NC(=N6)c6cc(Oc7ccc(-c8[nH]c9cc(Br)cc(Cl)c9[n+]8C)cc7)ccc65)=NC4=N3)cc2)[nH]c2cc(Br)cc(Cl)c21.[I-].[I-].[I-].[I-] [Compound 235]	MCF-7 (human breast adenocarcinoma) cells	10
C[n+]1c(-c2ccc(Oc3ccc4c(c3)C3=Nc5c6ccc(Oc7ccc(-c8[nH]c9cc(Cl)c(Cl)cc9[n+]8C)cc7)cc6c6[n]5[Zn][n]5c(c7ccc(Oc8ccc(-c9[nH]c%10cc(Cl)c(Cl)cc%10[n+]9C)cc8)cc7c5=NC5=NC(=N6)c6cc(Oc7ccc(-c8[nH]c9cc(Cl)c(Cl)cc9[n+]8C)cc7)ccc65)=NC4=N3)cc2)[nH]c2cc(Cl)c(Cl)cc21.[I-].[I-].[I-].[I-] [Compound 207]	MCF-7 (human breast adenocarcinoma) cells	120
C[n+]1c(-c2ccc(Oc3ccc4c(c3)C3=Nc5c6ccc(Oc7ccc(-c8[nH]c9ccc(Cl)cc9[n+]8C)cc7)cc6c6[n]5[Cu][n]5c(c7ccc(Oc8ccc(-c9[nH]c%10ccc(Cl)cc%10[n+]9C)cc8)cc7c5=NC5=NC(=N6)c6cc(Oc7ccc(-c8[nH]c9ccc(Cl)cc9[n+]8C)cc7)ccc65)=NC4=N3)cc2)[nH]c2ccc(Cl)cc21.[I-].[I-].[I-].[I-] [Compound 244]	MCF-7 (human breast adenocarcinoma) cells	80
C[n+]1c(-c2ccc(Oc3ccc4c(c3)C3=Nc5c6ccc(Oc7ccc(-c8[nH]c9ccc(Cl)cc9[n+]8C)cc7)cc6c6[n]5[Zn][n]5c(c7ccc(Oc8ccc(-c9[nH]c%10ccc(Cl)cc%10[n+]9C)cc8)cc7c5=NC5=NC(=N6)c6cc(Oc7ccc(-c8[nH]c9ccc(Cl)cc9[n+]8C)cc7)ccc65)=NC4=N3)cc2)[nH]c2ccc(Cl)cc21.[I-].[I-].[I-].[I-] [Compound 242]	MCF-7 (human breast adenocarcinoma) cells	120

Qu. Record request: Min. Death conc. value, item C[n+]1c(-c2ccc(Oc3ccc4c(c3)C3=Nc5c6ccc(Oc7ccc(-c8[nH]c9cc(Cl)c(Cl)cc9[n+]8C)cc7)cc6c6[n]5[Cu][n]5c(c7ccc(Oc8ccc(-c9[nH]c%10cc(Cl)c(Cl)cc%10[n+]9C)cc8)cc7c5=NC5=NC(=N6)c6cc(Oc7ccc(-c8[nH]c9cc(Cl)c(Cl)cc9[n+]8C)cc7)ccc65)=NC4=N3)cc2)[nH]c2cc(Cl)c(Cl)cc21.[I-].[I-].[I-].[I-] [Compound 209]
Ans. 20

Qu. Moving on to the next molecule: C[n+]1c(-c2ccc(Oc3ccc4c(c3)C3=Nc5c6ccc(Oc7ccc(-c8[nH]c9ccc(Cl)cc9[n+]8C)cc7)cc6c6[n]5[Co][n]5c(c7ccc(Oc8ccc(-c9[nH]c%10ccc(Cl)cc%10[n+]9C)cc8)cc7c5=NC5=NC(=N6)c6cc(Oc7ccc(-c8[nH]c9ccc(Cl)cc9[n+]8C)cc7)ccc65)=NC4=N3)cc2)[nH]c2ccc(Cl)cc21.[I-].[I-].[I-].[I-] [Compound 243]
Ans. 120
